Biological target: D(1A) dopamine receptor (Homo sapiens)
Experiment: Antagonist of Human D 1 Dopamine Receptor: qHTS; further: on the % scale 0 is the no-effect control and ±100 the full control effect
Settings: HEK293 TREx D1 cells, calcium flux, dopamine EC80; at 10 µM; stronger effect = lower value
Procedure: Dopamine receptors (DARs) are involved in the etiology and/or therapy of a number of neuropsychiatric and endocrine disorders. […] Freshly passaged cells are plated in 1536 well black, clear bottom plates at a density of 4000 cells/well in 3 ul of complete media containing 1x tetracycline inducer. […] Agonist read: A 10 cycle (1 second/cycle) baseline measurement is taken and then the FDSS online 1536 pintool delivers 23 nl of compound library (as well as dopamine controls) to the plate. […]
Screen size: about 360,000 compounds; about 11,000 (3.1%) were called active. This is one part of a sample in which actives are shown more often than they occur.
MEASURE: activity change, negative = inhibition (%)
Respond numerically; units are % and should not be typed.

CCOC(=O)C(=CNNc1ccsc1C(=O)OC)C(=O)OCC; 12.1
CCc1ccc(Sc2cc(C(=O)NCCCOC(C)C)c3ccccc3n2)cc1; 9.99
Cc1ccccc1C(=O)Nc1sc2c(c1C(=O)N1CCC(C)CC1)CCCC2; 5.36

(Q) Field request: activity change, negative = inhibition | item: CC(=O)Nc1cc(C(=O)NCc2ccc(F)cc2)ccc1Sc1ccc(F)cc1
(A) 3.13

(Q) Let us now turn to CCOc1cc(C(=O)NCCc2csc3nc(-c4ccc(C)cc4)nn23)cc(OCC)c1OCC
(A) 3.63

(Q) Let us now turn to NC(=O)C[C@@H]1NC(=O)CNC(=O)c2cc([N+](=O)[O-])cc(I)c2NCCC(C(N)=O)NC1=O (stereo partly drawn)
(A) -30.2

(Q) Let us now turn to COC(=O)c1sccc1NC(=S)Nc1ccc(C)cc1
(A) -32.4

(Q) Let us now turn to O=S(=O)(c1cccc(Cn2nnc(-c3ccc(F)cc3)n2)c1)N1CCOCC1
(A) -46.2

(Q) Let us now turn to CCOC(=O)c1cc2c(=O)n3ccccc3nc2n(Cc2ccco2)c1=NC(=O)c1ccc(F)cc1
(A) -29.5

(Q) Let us now turn to CCCCN(CC)CCCNC(=O)c1nn(C)c2c1CS(=O)(=O)c1ccccc1-2
(A) 4.54

(Q) Let us now turn to c1ccc(-c2csc(N3CCc4ccccc4C3)n2)cc1
(A) 4.74
